experiment: molar heat capacity at constant pressure; conditions: 232.15 K; 101.33 kPa; Crystal; Small sample (50 mg) DSC
VALUE TYPE: molar heat capacity at constant pressure (J/K/mol)

- COMPOUND: "OC[C@@H](O)C(O)[C@H](O)CO"
  DISPLAY UNIT: "J/K/mol"
  RESULT: 156.46
- COMPOUND: "OC[C@@H](O)[C@@H](O)CO"
  DISPLAY UNIT: "J/K/mol"
  RESULT: 129.79
- COMPOUND: "OC[C@@H](O)[C@H](O)[C@@H](O)CO"
  DISPLAY UNIT: "J/K/mol"
  RESULT: 162.73
- COMPOUND: "OC[C@@H](O)[C@@H](O)[C@H](O)[C@H](O)CO"
  DISPLAY UNIT: "J/K/mol"
  RESULT: 181.3
- COMPOUND: "OC[C@H](O)C(O)[C@@H](O)CO [L-(-)-arabitol]"
  DISPLAY UNIT: "J/K/mol"
  RESULT: 160.98
- COMPOUND: "O[C@H]1[C@H](O)[C@@H](O)[C@H](O)[C@@H](O)[C@H]1O [cis-1,2,3,5-trans-4,6-cyclohexanehexol]"
  DISPLAY UNIT: "J/K/mol"
  RESULT: 167.66
